assay: Therapeutic index, ratio of MTD in rat to ED50 for antitumor activity against human PC3 cells xenografted in rat; type: cell-based, PC-3; settings: in vivo, read-out: TI
Think of 3 as a floor: if selectivity ratio stands on it or above, it is 1; beneath it, -1.

{"compound": "O=C1Nc2c(ccc(F)c2F)C1(c1ccc(O)cc1)c1ccc(F)cc1 (racemic)", "group-label": -1}
{"compound": "O=C1Nc2c(ccc(F)c2F)C1(c1ccc(O)cc1)C1CCCCC1 (racemic)", "group-label": -1}
{"compound": "O=C1Nc2c(ccc(F)c2F)C1(c1ccc(O)cc1)C1CCCCCC1 (racemic)", "group-label": 1}
{"compound": "COc1ccc2c(c1C)NC(=O)C2(c1ccc(O)cc1)C1CCCCCC1 (racemic)", "group-label": 1}
{"compound": "O=C1Nc2c(C(F)(F)F)cccc2C1(c1ccc(O)cc1)C1CCCCCC1 (racemic)", "group-label": 1}

(Q) # check: selectivity ratio of O=C1Nc2c(ccc(F)c2F)C1(c1ccc(O)cc1)c1ccc(O)cc1 is greater than or equal to 3
(A) -1
